Parameter: pKd. Scope: all listed entries.
Target: T1, full-length rat CD11d on transfected JY cells (rat, UniProt Q9QYE7 20-1161)
T1 construct: whole, on cells
T1 sequence (looked up): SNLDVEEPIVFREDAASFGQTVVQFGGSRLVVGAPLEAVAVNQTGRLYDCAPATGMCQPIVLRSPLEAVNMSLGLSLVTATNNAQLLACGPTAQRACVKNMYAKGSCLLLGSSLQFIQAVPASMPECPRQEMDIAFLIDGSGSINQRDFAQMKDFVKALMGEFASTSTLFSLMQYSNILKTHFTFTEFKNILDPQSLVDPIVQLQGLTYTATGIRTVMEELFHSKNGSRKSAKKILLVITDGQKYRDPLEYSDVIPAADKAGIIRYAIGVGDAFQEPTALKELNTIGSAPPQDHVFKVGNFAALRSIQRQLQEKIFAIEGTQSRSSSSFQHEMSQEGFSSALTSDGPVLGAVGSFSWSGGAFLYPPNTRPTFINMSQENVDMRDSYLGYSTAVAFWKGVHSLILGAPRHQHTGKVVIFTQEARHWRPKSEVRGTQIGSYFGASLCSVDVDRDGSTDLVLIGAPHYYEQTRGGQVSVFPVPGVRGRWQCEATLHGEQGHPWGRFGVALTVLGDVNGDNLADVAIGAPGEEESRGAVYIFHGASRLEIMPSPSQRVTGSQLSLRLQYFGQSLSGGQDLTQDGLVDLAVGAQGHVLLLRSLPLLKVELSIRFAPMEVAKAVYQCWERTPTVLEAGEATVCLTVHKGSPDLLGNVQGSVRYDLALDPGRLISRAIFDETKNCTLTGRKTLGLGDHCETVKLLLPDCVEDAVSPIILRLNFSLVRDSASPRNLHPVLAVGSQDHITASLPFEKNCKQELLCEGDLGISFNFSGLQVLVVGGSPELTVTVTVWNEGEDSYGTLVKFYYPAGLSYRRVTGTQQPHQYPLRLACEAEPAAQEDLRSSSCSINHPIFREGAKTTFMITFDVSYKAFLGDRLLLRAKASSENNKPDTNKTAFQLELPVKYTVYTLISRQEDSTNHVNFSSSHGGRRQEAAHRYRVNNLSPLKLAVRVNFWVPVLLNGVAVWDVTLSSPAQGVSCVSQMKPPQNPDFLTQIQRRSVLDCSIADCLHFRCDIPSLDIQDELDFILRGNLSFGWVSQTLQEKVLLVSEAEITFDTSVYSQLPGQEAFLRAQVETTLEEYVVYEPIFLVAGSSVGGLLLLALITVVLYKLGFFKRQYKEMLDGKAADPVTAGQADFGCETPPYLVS
Experiment: FACS on JY cells transfected with full-length rat CD11d; non-linear regression, one-site binding model
When answering, recall that pKd equals minus log10 of the concentration in mol/L, and write that number alone.

See these solved cases before continuing.
| BINDER | OUTCOME MEASURE | ASSAY VALUE |
| --- | --- | --- |
| Exemplified Antibody 5 (antibody, human IgG4 S228P, kappa, F234A L235A, V domains shown, Humanized antibody, full LC (kappa) and HC (IgG4)) VH: QVQLVQSGAEVKKPGASVKVSCKASGYTFTDYNMHWVRQAPGQGLEWMGYIYPYSGDTGYNQNFKSRVTMTRDTSTSTVYMELSSLRSEDTAVYYCARGLIYYGYLNVAMDSWGQGTLVTVSS VL: DIQMTQSPSSLSASVGDRVTITCRASESIGTRIHWYQQKPGKAPKLLIYFASESISGVPSRFSGSGSGTDFTLTISSLQPEDFATYYCQQSKIWPTTFGGGTKLEIKR | pKd | 8.93 |
| Exemplified Antibody 4 (antibody, human IgG4 S228P, kappa, F234A L235A, V domains shown, Humanized antibody, full LC (kappa) and HC (IgG4)) VH: QVQLVQSGAEVKKPGASVKVSCKASGYTFYDYNMHWVRQAPGQGLEWMGYIYPYNGDTGYNQNFKSRVTMTRDTSTSTVYMELSSLRSEDTAVYYCARGLIHYGYLNVAMDSWGQGTLVTVSS VL: DIQMTQSPSSLSASVGDRVTITCRASRSIGTRIHWYQQKPGKAPKLLIYFASGSISGVPSRFSGSGSGTDFTLTISSLQPEDFATYYCQQSKIFPTTFGGGTKLEIKR | pKd | 9.61 |

I would be grateful if you could share the reported pKd for Exemplified Antibody 3 (antibody, human IgG4 S228P, kappa, F234A L235A, V domains shown, Humanized antibody, full LC (kappa) and HC (IgG4)) VH: QVQLVQSGAEVKKPGASVKVSCKASGYTFTDYNMHWVRQAPGQGLEWMGYIYPYSGDTGYNQNFKSRVTMTRDTSTSTVYMELSSLRSEDTAVYYCARGLIYYGYLNVAMDSWGQGTLVTVSS VL: DIQMTQSPSSLSASVGDRVTITCRASQSIGTRIHWYQQKPGKAPKLLIYFASESISGVPSRFSGSGSGTDFTLTISSLQPEDFATYYCQQSKIGPTTFGGGTKLEIKR . 9.17

Source: patent US20230183355A1
